- measured target: SaDHAD (dihydroxy-acid dehydratase) (Staphylococcus aureus, UniProt Q2FWK7)
- Construct: gene ilvD; hexa-histidine tag at the N-terminal, pET-28a
- Sequence (Q2FWK7 whole entry): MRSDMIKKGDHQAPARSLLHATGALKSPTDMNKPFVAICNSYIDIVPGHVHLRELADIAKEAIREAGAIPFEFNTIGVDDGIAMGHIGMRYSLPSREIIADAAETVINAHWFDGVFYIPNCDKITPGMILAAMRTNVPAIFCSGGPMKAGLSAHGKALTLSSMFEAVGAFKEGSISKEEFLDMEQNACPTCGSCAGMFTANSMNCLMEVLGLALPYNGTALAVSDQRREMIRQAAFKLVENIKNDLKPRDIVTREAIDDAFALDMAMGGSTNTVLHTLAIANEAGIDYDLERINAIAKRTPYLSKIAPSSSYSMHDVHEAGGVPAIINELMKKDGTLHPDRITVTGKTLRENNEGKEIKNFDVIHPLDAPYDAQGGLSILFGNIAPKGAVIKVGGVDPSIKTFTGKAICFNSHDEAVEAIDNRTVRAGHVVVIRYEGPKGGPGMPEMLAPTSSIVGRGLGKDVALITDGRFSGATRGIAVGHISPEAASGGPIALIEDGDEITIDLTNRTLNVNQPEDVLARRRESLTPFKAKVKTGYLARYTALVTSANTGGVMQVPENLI
- test details: DNPH colorimetric endpoint assay with DHIV, 30-min pre-incubation
- Assay type: biochemical
quantity kind: Ki (µM)
Expressed in µM, but write only the number.

Query block: If you can, please state the reported Ki value of "CC(C)N(O)C(=O)C(=O)O" .
Result block: 7.8

---

- measured target: CjDHAD (dihydroxy-acid dehydratase) (Campylobacter jejuni, UniProt Q9PJ98)
- Construct: gene ilvD; hexa-histidine tag at the N-terminal, pET-28a
- Sequence (Q9PJ98 whole entry): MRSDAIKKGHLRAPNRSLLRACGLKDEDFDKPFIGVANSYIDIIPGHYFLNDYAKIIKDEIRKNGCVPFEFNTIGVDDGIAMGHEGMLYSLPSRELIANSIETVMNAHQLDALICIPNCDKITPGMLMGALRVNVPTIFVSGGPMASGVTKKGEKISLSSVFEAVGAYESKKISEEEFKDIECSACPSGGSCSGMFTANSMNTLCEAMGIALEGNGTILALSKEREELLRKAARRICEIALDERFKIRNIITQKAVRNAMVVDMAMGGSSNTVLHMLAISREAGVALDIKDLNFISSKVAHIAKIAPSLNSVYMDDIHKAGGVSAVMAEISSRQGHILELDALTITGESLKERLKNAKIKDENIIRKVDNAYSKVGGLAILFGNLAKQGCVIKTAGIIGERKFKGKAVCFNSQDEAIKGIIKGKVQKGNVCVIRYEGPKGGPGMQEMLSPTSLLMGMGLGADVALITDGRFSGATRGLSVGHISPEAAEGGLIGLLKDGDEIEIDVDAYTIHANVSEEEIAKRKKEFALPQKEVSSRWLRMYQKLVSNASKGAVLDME
- test details: DNPH colorimetric endpoint assay with DHIV, 30-min pre-incubation
- Type: biochemical
quantity kind: Ki (µM)
Expressed in µM, but write only the number.

Query block: If you can, please state the reported Ki value of "CC(C)N(O)C(=O)C(=O)O" .
Result block: 32.9

All figures here come from paper PMC9543379.
